Data origin, for the record: PubChem BioAssay (EPA / NIEHS)

assay: IUF_NPC1_viability_72hr: Viability Assessment at 72 hours in the Leibniz Research Institute for Environmental Medicine (IUF) Neural Progenitor Cell Proliferation Assay (NPC1) (AID 2284209)
The source made the active and inactive calls. How the source made its calls: active means hit-call score of the fitted dose curve at least 0.9, where 1 is the maximum; inactive means score below 0.9.
recordedEndpoint: outcome

In [3]: df
Out[3]:
                                   molecule  experimentalresult
0        CC(=O)[O-].CC(=O)[O-].O.O.O.[Pb+2]            inactive
1  CC1(C)[C@H](C=C(Cl)Cl)[C@H]1C(=O)OCc1c(F)c(F)cc(F)c1F            inactive
2          COP(=O)(OC)SCN1C(=O)c2ccccc2C1=O            inactive
3  CC1(C)C(C=C(Cl)Cl)C1C(=O)O[C@H](C#N)c1cccc(Oc2ccccc2)c1 (some centres undefined)            inactive
